Test Description: Timed organ biodistribution of [^64Cu]Cu-DOTATATE by ex vivo gamma counting
Type: in vivo, mice
Test Parameters: mouse, abdominal aorta, intravenous, 1.85 MBq, total radioactivity; female C57BL/6 mice, 60 min after injection, median (IQR), N=3-7; read-out: Tissue radioactivity, abdominal aorta
Assay Endpoint: tissue uptake at 1 h (%ID/g)
One number for each entry, in %ID/g.

Request: Item C[C@@H](O)[C@H](NC(=O)[C@@H]1CSSC[C@H](NC(=O)[C@@H](Cc2ccccc2)NC(=O)CN2CCN(CC(=O)O)CCN(CC(=O)O)CCN(CC(=O)O)CC2)C(=O)N[C@@H](Cc2ccc(O)cc2)C(=O)N[C@H](Cc2c[nH]c3ccccc23)C(=O)N[C@@H](CCCCN)C(=O)N[C@@H]([C@@H](C)O)C(=O)N1)C(=O)O [[^64Cu]Cu-DOTATATE, metal not drawn] has what recorded tissue uptake at 1 h?
Result: 1.3

Origin of measurements: paper PMC9007951
